- assay.notes: Pharmacokinetics of a single ascending oral dose in healthy male subjects
- Format: in vivo, human
- condition.context: human, in vivo; single oral dose 25 mg, unformulated in capsule, healthy male subjects; geometric mean
measured.endpoint: AUC(0-inf) (ng·h/mL)

smiles.record | readout.unit | recorded.measurement
O[C@H]1CC[C@H](Nc2ncc3nc(Nc4c(F)cc(F)cc4F)n([C@H]4CCOC4)c3n2)CC1 | ng·h/mL | 3600

---

- assay.notes: clinical
- condition.context: female, human, in vivo, po, 100 mg, Vz/F

compound | Vd/F [L]
O[C@H]1CC[C@H](Nc2ncc3nc(Nc4c(F)cc(F)cc4F)n([C@H]4CCOC4)c3n2)CC1 [Compound I] | 265

---

- assay.notes: Pharmacokinetics of a single ascending oral dose in healthy male subjects
- Format: in vivo, human
- condition.context: human, in vivo; single oral dose 50 mg, unformulated in capsule, healthy male subjects; geometric mean
measured.endpoint: AUC(0-t) (ng·h/mL)

smiles.record | measured.endpoint | recorded.measurement
O[C@H]1CC[C@H](Nc2ncc3nc(Nc4c(F)cc(F)cc4F)n([C@H]4CCOC4)c3n2)CC1 | AUC(0-t) | 6700

---

- assay.notes: Pharmacokinetics (plasma and urine) of ascending multiple oral doses in healthy volunteers
- Format: in vivo, human
- condition.context: both sexes, human, oral; 200 mg QD, Day 14, plasma (N = 8); geometric mean; read-out: Vz/F
measured.endpoint: Vd/F (L)

smiles.record | recorded.measurement
O[C@H]1CC[C@H](Nc2ncc3nc(Nc4c(F)cc(F)cc4F)n([C@H]4CCOC4)c3n2)CC1 | 328

---

- assay.notes: Pharmacokinetics (plasma and urine) of ascending multiple oral doses in healthy volunteers
- Type: in vivo, human
- condition.context: both sexes, human, plasma, oral, 200 mg, 200 mg QD, Day 1, plasma (N = 8); geometric mean
- Method: Subjects: Forty healthy male and female subjects between the ages of 20 and 50 were enrolled in the study. All subjects were in good health as determined by a medical history, physical examination, 12-lead ECG, serum biochemistry, hematology, urinalysis and virology. […] Assessments: Safety and tolerability were assessed by adverse event (AE) monitoring, clinical laboratory testing, vital sign measurement, 12-lead ECG measurement, concomitant medication assessment, and physical examination. […]

smiles.record | AUC(0-inf) / ng·h/mL
O[C@H]1CC[C@H](Nc2ncc3nc(Nc4c(F)cc(F)cc4F)n([C@H]4CCOC4)c3n2)CC1 | 27000

---

- assay.notes: Pharmacokinetics of a single ascending oral dose in healthy male subjects
- Assay type: in vivo, human
- condition.context: human, in vivo; single oral dose 200 mg, unformulated in capsule, healthy male subjects; median (min-max); read-out: Tmax
measured.endpoint: Tmax (h)

smiles.record | recorded.measurement
O[C@H]1CC[C@H](Nc2ncc3nc(Nc4c(F)cc(F)cc4F)n([C@H]4CCOC4)c3n2)CC1 | 1.5

---

- assay.notes: Pharmacokinetics (plasma and urine) of ascending multiple oral doses in healthy volunteers
- Format: in vivo, human
- condition.context: both sexes, human, plasma, oral, 50 mg, 50 mg QD, Day 14, plasma (N = 8); geometric mean

smiles.record | readout.unit | AUC(0-inf)
O[C@H]1CC[C@H](Nc2ncc3nc(Nc4c(F)cc(F)cc4F)n([C@H]4CCOC4)c3n2)CC1 | ng·h/mL | 21300

---

- assay.notes: Toxicokinetics in pregnant female rats
- Format: in vivo, rat
- condition.context: female, Crl:CD(SD), rat, fetal plasma / maternal plasma, oral, 50 mg/kg/day; rats, 50 mg/kg/d, Gestation Day 17; calculated from individual ratios; read-out: Fetal:Maternal Plasma Ratio
measured.endpoint: Kp

smiles.record | recorded.measurement
O[C@H]1CC[C@H](Nc2ncc3nc(Nc4c(F)cc(F)cc4F)n([C@H]4CCOC4)c3n2)CC1 | 0.61

---

- assay.notes: Pharmacokinetics (plasma and urine) of ascending multiple oral doses in healthy volunteers
- Type: in vivo, human
- condition.context: both sexes, human, plasma, oral, 200 mg, 200 mg QD, Day 1, plasma, healthy subjects (N = 8); geometric mean; read-out: Cmax
measured.endpoint: Cmax (ng/mL)

molecule | readout.unit | recorded.measurement
O[C@H]1CC[C@H](Nc2ncc3nc(Nc4c(F)cc(F)cc4F)n([C@H]4CCOC4)c3n2)CC1 [Compound I] | ng/mL | 1440

---

- assay.notes: Pharmacokinetics (plasma and urine) of ascending multiple oral doses in healthy volunteers
- Assay type: in vivo, human
- condition.context: both sexes, human, plasma, oral, 100 mg, 100 mg QD, Day 14, plasma (N = 8); geometric mean
measured.endpoint: AUC(0-inf)

smiles.record | measured.endpoint | recorded.measurement
O[C@H]1CC[C@H](Nc2ncc3nc(Nc4c(F)cc(F)cc4F)n([C@H]4CCOC4)c3n2)CC1 | AUC(0-inf) | 31600 ng·h/mL

---

- assay.notes: Toxicokinetics in pregnant female rats
- Format: in vivo, rat
- condition.context: female, CD [Crl:CD(SD)], rat, plasma, 50 mg/kg/day; pregnant rats, 50 mg/kg/d oral, Gestation Day 16

smiles.record | Cmax [ng/mL]
O[C@H]1CC[C@H](Nc2ncc3nc(Nc4c(F)cc(F)cc4F)n([C@H]4CCOC4)c3n2)CC1 | 4210

---

- assay.notes: Pharmacokinetics (plasma and urine) of ascending multiple oral doses in healthy volunteers
- Assay type: in vivo, human
- condition.context: both sexes, human, oral; 100 mg QD, Day 14, plasma (N = 8); geometric mean; read-out: Vz/F

smiles.record | readout.unit | Vd/F
O[C@H]1CC[C@H](Nc2ncc3nc(Nc4c(F)cc(F)cc4F)n([C@H]4CCOC4)c3n2)CC1 | L | 338

---

- assay.notes: Pharmacokinetics (plasma and urine) of ascending multiple oral doses in healthy volunteers
- Format: in vivo, human
- condition.context: both sexes, human, plasma, oral, 100 mg, 100 mg QD, Day 14, plasma, healthy subjects (N = 8); geometric mean; read-out: Cmax

smiles.record | readout.unit | Cmax
O[C@H]1CC[C@H](Nc2ncc3nc(Nc4c(F)cc(F)cc4F)n([C@H]4CCOC4)c3n2)CC1 | µg/mL | 0.88

---

- assay.notes: Toxicokinetics in pregnant female rats
- Format: in vivo, rat
- condition.context: female, Crl:CD(SD), rat, plasma, 25 mg/kg/day; pregnant rats, 25 mg/kg/d oral, Gestation Day 6

molecule | readout.unit | Cmax
O[C@H]1CC[C@H](Nc2ncc3nc(Nc4c(F)cc(F)cc4F)n([C@H]4CCOC4)c3n2)CC1 [Compound I] | ng/mL | 2420

---

- assay.notes: Toxicokinetics in pregnant female rats
- Assay type: in vivo, rat
- condition.context: female, Crl:CD(SD), rat, fetal plasma / maternal plasma, oral, 25 mg/kg/day; rats, 25 mg/kg/d, Gestation Day 17; calculated from individual ratios; read-out: Fetal:Maternal Plasma Ratio

molecule | Kp
O[C@H]1CC[C@H](Nc2ncc3nc(Nc4c(F)cc(F)cc4F)n([C@H]4CCOC4)c3n2)CC1 [Compound I] | 0.59

---

- assay.notes: Toxicokinetics in pregnant female rabbits
- Type: in vivo, rabbit
- condition.context: female, New Zealand White Hra:(NZW)SPF, rabbit, fetal plasma / maternal plasma, oral, 10 mg/kg/day; rabbits, 10 mg/kg/d, Gestation Day 19; calculated from individual ratios; read-out: Fetal:Maternal Plasma Ratio

molecule | Kp
O[C@H]1CC[C@H](Nc2ncc3nc(Nc4c(F)cc(F)cc4F)n([C@H]4CCOC4)c3n2)CC1 [Compound I] | 0.1

---

- assay.notes: Pharmacokinetics (plasma and urine) of ascending multiple oral doses in healthy volunteers
- Assay type: in vivo, human
- condition.context: both sexes, human, plasma, oral, 25 mg, 25 mg QD, Day 1, plasma, τ = 24 hours (N = 8); geometric mean; read-out: AUC(0-τ)

compound | AUC
O[C@H]1CC[C@H](Nc2ncc3nc(Nc4c(F)cc(F)cc4F)n([C@H]4CCOC4)c3n2)CC1 [Compound I] | 2270 ng·h/mL

---

- assay.notes: Pharmacokinetics (plasma and urine) of ascending multiple oral doses in healthy volunteers
- Type: in vivo, human
- condition.context: both sexes, human, oral; 50 mg QD, Day 14, plasma (N = 8); geometric mean; read-out: t1/2 (converted)

compound | half-life (h)
O[C@H]1CC[C@H](Nc2ncc3nc(Nc4c(F)cc(F)cc4F)n([C@H]4CCOC4)c3n2)CC1 [Compound I] | 26

---

- assay.notes: clinical
- condition.context: female, human, in vivo, po, 100 mg, t1/2, Geometric Mean

compound | half-life
O[C@H]1CC[C@H](Nc2ncc3nc(Nc4c(F)cc(F)cc4F)n([C@H]4CCOC4)c3n2)CC1 [Compound I] | 24.6 h

---

- assay.notes: Pharmacokinetics (plasma and urine) of ascending multiple oral doses in healthy volunteers
- Assay type: in vivo, human
- condition.context: both sexes, human, plasma, oral, 50 mg, 50 mg QD, Day 1, plasma, healthy subjects (N = 8); geometric mean; read-out: Cmax
measured.endpoint: Cmax (ng/mL)

molecule | recorded.measurement
O[C@H]1CC[C@H](Nc2ncc3nc(Nc4c(F)cc(F)cc4F)n([C@H]4CCOC4)c3n2)CC1 [Compound I] | 406
